- Protocol description: Growth inhibition of human PC3 cells after 48 hrs by sulforhodamine B colorimetric assay
- Assay type: functional
- Experimental parameters: PC-3, 48 h
For each of the compounds below, state its GI50.

Record CCCCCCCCCCCC[C@@H](O)[C@H]1CC[C@H]([C@H](O)CCCCCCCCCCCCC2=C[C@H](C)OC2=O)O1 . Reported GI50: > 100 µM

Entry CCCCCCCCCCCC[C@@H](O)[C@H]1CC[C@H]([C@H](O)CCCCCCCCCCNC(=O)c2cncs2)O1 — recorded GI50 = > 100 µM

Record CCCCCCCCCCCC[C@@H](O)[C@H]1CC[C@H]([C@H](O)CCCCCCCCCCNC(=O)c2ccco2)O1 , field GI50: > 100 µM

* * *

- Protocol description: Growth inhibition of human SF539 cells after 48 hrs by sulforhodamine B colorimetric assay
- Format: functional
- Experimental parameters: SF-539, 48 h
Measure: GI50

Measured GI50, CCCCCCCCCCCC[C@@H](O)[C@H]1CC[C@H]([C@H](O)CCCCCCCCCCCCC2=C[C@H](C)OC2=O)O1 : > 100 µM

response.value for CCCCCCCCCCCC[C@@H](O)[C@H]1CC[C@H]([C@H](O)CCCCCCCCCCNC(=O)c2ccoc2)O1 (field: GI50) = > 100 µM

Briefly, GI50 measured for CCCCCCCCCCCC[C@@H](O)[C@H]1CC[C@H]([C@H](O)CCCCCCCCCCNC(=O)c2ccsc2)O1 : > 100 µM

* * *

- Tested on: St-4
- Protocol description: Growth inhibition of human St-4 cells after 48 hrs by sulforhodamine B colorimetric assay
- Format: functional
- Experimental parameters: St-4, 48 h
Measure: GI50

Query CCCCCCCCCCCC[C@@H](O)[C@H]1CC[C@H]([C@H](O)CCCCCCCCCCCCC2=C[C@H](C)OC2=O)O1 [REL-SOLAMIN] yields GI50 of > 100 µM

Value of measured GI50 for the entry CCCCCCCCCCCC[C@@H](O)[C@H]1CC[C@H]([C@H](O)CCCCCCCCCCNC(=O)c2cncs2)O1 : > 100 µM

The compound CCCCCCCCCCCC[C@@H](O)[C@H]1CC[C@H]([C@H](O)CCCCCCCCCCNC(=O)c2ccco2)O1 showed GI50 equal to > 100 µM
